This collection of values is drawn from patent US20240092758A1.

assay_protocol: Pharmacokinetics in plasma and lung in mouse after oral aspiration administration
Assay type: in vivo
test_context: mouse, inhaled or intranasal, 0.01 mg/mouse, male CD1 mice, 0.2 mg/mL, two 25 μL increments, plasma, read-out: Plasma AUC(0-24)

compound	AUC(0-t)
CCc1cc(O)ccc1-c1ccc2c(-c3nc(C4=CCN(C5CCNC5=O)C4)c[nH]3)n[nH]c2c1 (centres unmarked) [Example 94]	< 500 ng·h/mL
CCc1cc(O)ccc1-c1ccc2c(-c3nc(C4=CC[C@H](C)NC4)c[nH]3)n[nH]c2c1F [Example 234]	< 500 ng·h/mL
CCc1cc(O)ccc1-c1ccc2c(-c3nc(C4=CCN(CCCO)CC4)c[nH]3)n[nH]c2c1F [Compound 14]	< 500 ng·h/mL
CCc1cc(O)ccc1-c1ccc2c(-c3nc(C4=CCCN(CCCO)C4)c[nH]3)n[nH]c2c1F [Example 45]	< 500 ng·h/mL
CCc1cc(O)ccc1-c1ccc2c(-c3nc(C4=CCN(C5CCN(C)CC5)CC4)c[nH]3)n[nH]c2c1F [Example 185]	500 to 1000 ng·h/mL

====

System: IL-13 induced STAT6 phosphorylation in BEAS-2B human lung epithelial cells
assay_protocol: Cellular JAKI potency assay (BEAS-2B)
Type: cell-based
test_context: Homo sapiens, BEAS-2B, BEAS-2B cells, read-out: BEAS2B pIC50 (converted)

compound	measured_target	IC50
CCc1cc(O)ccc1-c1ccc2c(-c3nc(C4=CCCN(C[C@@H]5COCCN5)C4)c[nH]3)n[nH]c2c1 [Example 193]	IL-13 induced STAT6 phosphorylation in BEAS-2B human lung epithelial cells	31.6 to 100 nM
CCc1cc(O)ccc1-c1ccc2c(-c3nc(C4=CCN(C(C)=O)CC4)c[nH]3)n[nH]c2c1F [Example 154]	IL-13 induced STAT6 phosphorylation in BEAS-2B human lung epithelial cells	10 to 31.6 nM
CCc1cc(O)ccc1-c1ccc2c(-c3nc(C4=C[C@H](CCO)NC4)c[nH]3)n[nH]c2c1F [Example 314]	IL-13 induced STAT6 phosphorylation in BEAS-2B human lung epithelial cells	10 to 31.6 nM
CCc1cc(O)ccc1-c1ccc2c(-c3nc(C4=CCN(C5CCNC5=O)C4)c[nH]3)n[nH]c2c1F (stereo not drawn) [Example 98]	IL-13 induced STAT6 phosphorylation in BEAS-2B human lung epithelial cells	31.6 to 100 nM
CCc1cc(O)ccc1-c1ccc2c(-c3nc(C4=CC(C(C)C)NC4)c[nH]3)n[nH]c2c1F (stereo not drawn) [Example 388]	IL-13 induced STAT6 phosphorylation in BEAS-2B human lung epithelial cells	31.6 to 100 nM
CCc1cc(O)ccc1-c1ccc2c(-c3nc(C4=CCCN(C(=O)OC)C4)c[nH]3)n[nH]c2c1 [Example 161]	IL-13 induced STAT6 phosphorylation in BEAS-2B human lung epithelial cells	31.6 to 100 nM
CCc1cc(O)ccc1-c1ccc2c(-c3nc(C4=CCN(CCO)C4)c[nH]3)n[nH]c2c1 [Example 50]	IL-13 induced STAT6 phosphorylation in BEAS-2B human lung epithelial cells	3.16 to 10 nM
CCc1cc(O)ccc1-c1ccc2c(-c3nc(C4=CCN(CCO)CC4)c[nH]3)n[nH]c2c1 [Example 33]	IL-13 induced STAT6 phosphorylation in BEAS-2B human lung epithelial cells	3.16 to 10 nM
CCc1cc(O)ccc1-c1ccc2c(-c3nc(C4=CC5COCC(C4)N5)c[nH]3)n[nH]c2c1F (stereo not drawn) [Example 228]	IL-13 induced STAT6 phosphorylation in BEAS-2B human lung epithelial cells	10 to 31.6 nM
CCc1cc(O)ccc1-c1ccc2c(-c3nc(C4=CCN(CCNC)CC4)c[nH]3)n[nH]c2c1F [Example 188]	IL-13 induced STAT6 phosphorylation in BEAS-2B human lung epithelial cells	31.6 to 100 nM
CCOC(=O)C[C@H]1C=C(c2c[nH]c(-c3n[nH]c4c(F)c(-c5ccc(O)cc5CC)ccc34)n2)CN1 [Example 286]	IL-13 induced STAT6 phosphorylation in BEAS-2B human lung epithelial cells	3.16 to 10 nM
CCc1cc(O)ccc1-c1ccc2c(-c3nc(C4=CCCN(C5CN(C)C5)C4)c[nH]3)n[nH]c2c1F [Example 195]	IL-13 induced STAT6 phosphorylation in BEAS-2B human lung epithelial cells	31.6 to 100 nM
CCc1cc(O)ccc1-c1ccc2c(-c3nc(C4=CCN(C(=O)c5ccccc5)CC4)c[nH]3)n[nH]c2c1 [Example 151]	IL-13 induced STAT6 phosphorylation in BEAS-2B human lung epithelial cells	31.6 to 100 nM
CCc1cc(O)ccc1-c1ccc2c(-c3nc(C4=CCN(C(=O)CN)C4)c[nH]3)n[nH]c2c1F [Example 173]	IL-13 induced STAT6 phosphorylation in BEAS-2B human lung epithelial cells	31.6 to 100 nM
CCc1cc(O)ccc1-c1ccc2c(-c3nc(C4=CCN(Cc5ccn[nH]5)CC4)c[nH]3)n[nH]c2c1F [Example 137]	IL-13 induced STAT6 phosphorylation in BEAS-2B human lung epithelial cells	10 to 31.6 nM
